Below is a list of entries, each paired with its recorded inhibition value.
protocol.description: TLR3 IRF3 reporter activation blockers – cell-based, poly I:C stimulus, luciferase, 10K MLSCN set, primary screen (AID 602277)
conditions.used: HEK293-TLR3 RL24 IRF3 luciferase reporter, at 10 µM, active compounds read high
Kindly provide the numeric value in % only, without the unit symbol.

INSERT INTO results (compound, readout_number) VALUES
  ('CCOC(=O)CSc1nnc(CNC(=O)c2ccc(S(=O)(=O)N3CCCC3)cc2)n1C', 18.7),
  ('CCOC(=O)C1=C(c2ccccc2)N2CCS(=O)(=O)N=C2S1', 20.5),
  ('COCC(=O)N(Cc1ccc(OC)cc1)Cc1nc2ccccc2c(=O)[nH]1', 26.3);

The compound listed as "Cc1ccc(S(=O)(=O)N(CC(=O)N2CCC(C(N)=O)CC2)Cc2ccc(F)cc2)cc1" has a reported inhibition of 15.9

The compound listed as OC(CNCCc1ccccc1)c1ccccc1 (configuration not stated) has a reported inhibition of 15.7

The compound listed as "CN(C)c1nc(Nc2ccc(Cl)cc2)nc(OCC#N)n1" has a reported inhibition of 37.1

The compound listed as CCOC(=O)C1C(=O)OC(C)(C)C1C(C)C(=O)c1ccc(OC)cc1 (configuration not stated) has a reported inhibition of 23.4
